- target.of.assay: T1, HDAC7 catalytic domain
- T1 chain: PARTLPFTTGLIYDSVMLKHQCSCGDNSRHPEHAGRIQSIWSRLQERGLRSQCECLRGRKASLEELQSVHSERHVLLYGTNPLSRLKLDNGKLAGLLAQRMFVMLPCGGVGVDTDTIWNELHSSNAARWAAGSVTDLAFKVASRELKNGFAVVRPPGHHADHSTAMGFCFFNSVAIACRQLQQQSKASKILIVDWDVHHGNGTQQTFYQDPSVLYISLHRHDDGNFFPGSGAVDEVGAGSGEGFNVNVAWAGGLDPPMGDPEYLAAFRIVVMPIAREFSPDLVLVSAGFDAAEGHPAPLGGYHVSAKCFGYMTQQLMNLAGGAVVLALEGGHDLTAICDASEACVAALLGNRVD
- test.details: FP
No end group written: not given here.
measured.endpoint: pKd
Numbers only, as −log10 of the molar value.

Tell us which pKd value is on record for `C(BODIPY‑TMR)PRPLKEGSITQGTPLKYDTG`
5.35
